assay: in vitro; details: human, Caco-2
Measured Papp of individual entries
Provide a numeric answer, followed by its unit.

CN/C(=N/CCSCc1nc[nH]c1C)NC#N [cimetidine, reference compound]    1.7 ×10⁻⁶ cm/s
Nc1ccc(C(=O)O)cc1    58.7 ×10⁻⁶ cm/s
CCc1ccc(O)cc1    43.7 ×10⁻⁶ cm/s
Oc1cccc(-c2ccccc2)c1 [3-hydroxybiphenyl]    28.4 ×10⁻⁶ cm/s
CC(=O)Nc1ccc(O)cc1 [acetaminophen, reference compound]    31.9 ×10⁻⁶ cm/s

QUERY: What Papp value was documented for this molecule, `COc1cc([N+](=O)[O-])ccc1N` ?
RESULT: 55.2 ×10⁻⁶ cm/s

QUERY: What Papp value was documented for this molecule, Oc1ccccc1-c1ccccc1 [2-hydroxybiphenyl] ?
RESULT: 33.4 ×10⁻⁶ cm/s

QUERY: What Papp value was documented for this molecule, `Sc1ncc[nH]1` ?
RESULT: 9.1 ×10⁻⁶ cm/s

QUERY: What Papp value was documented for this molecule, `CCc1cccc(O)c1` ?
RESULT: 51.5 ×10⁻⁶ cm/s

QUERY: What Papp value was documented for this molecule, C[C@@H]1C[C@H]2[C@@H]3CCC4=CC(=O)C=C[C@]4(C)[C@@]3(F)[C@@H](O)C[C@]2(C)[C@@]1(O)C(=O)CO [dexamethasone, reference compound] ?
RESULT: 9.5 ×10⁻⁶ cm/s
